Study System: T1, mTfR-1 N201A on Expi293 cells (mouse, UniProt Q62351 1-763)
T1 construct: whole, on cells
T1 sequence (Q62351 whole entry N201A): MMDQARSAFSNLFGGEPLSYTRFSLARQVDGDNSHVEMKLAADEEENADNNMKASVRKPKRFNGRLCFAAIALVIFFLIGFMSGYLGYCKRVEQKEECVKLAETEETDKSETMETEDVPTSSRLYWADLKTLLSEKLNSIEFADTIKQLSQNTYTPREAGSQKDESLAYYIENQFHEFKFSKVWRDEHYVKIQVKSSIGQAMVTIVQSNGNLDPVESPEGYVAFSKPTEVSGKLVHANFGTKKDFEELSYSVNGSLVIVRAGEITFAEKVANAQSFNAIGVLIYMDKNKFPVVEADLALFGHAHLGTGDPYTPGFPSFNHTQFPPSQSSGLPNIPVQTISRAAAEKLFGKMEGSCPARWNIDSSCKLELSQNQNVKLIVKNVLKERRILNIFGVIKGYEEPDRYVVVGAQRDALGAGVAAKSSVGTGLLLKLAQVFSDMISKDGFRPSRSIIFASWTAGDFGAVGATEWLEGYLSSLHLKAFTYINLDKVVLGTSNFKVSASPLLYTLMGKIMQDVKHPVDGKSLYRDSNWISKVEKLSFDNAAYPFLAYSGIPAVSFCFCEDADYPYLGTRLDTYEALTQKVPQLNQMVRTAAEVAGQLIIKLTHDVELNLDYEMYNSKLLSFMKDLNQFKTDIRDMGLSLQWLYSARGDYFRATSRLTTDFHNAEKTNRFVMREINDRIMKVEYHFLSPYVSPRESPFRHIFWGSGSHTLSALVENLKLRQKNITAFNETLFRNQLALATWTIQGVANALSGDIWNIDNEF
Test Name: FACS, transfected Expi293 cells; mutant poorly expressed
Method: Transfected Expi293 cells were harvested and 2×10⁵ cells were transferred into V-bottom 96-well plate for staining. […] The percentage of double-positive cells that stained with mTf and the tested antibody was determined on a CytoFlex cytometer (Beckman Coulter). […]
Hi there, I'd appreciate the recorded % double-positive cells vs WT for every entry that follows.
Answers are plain numbers, in %.

Sample answers from the record:
Binder	Endpoint Label	Endpoint Result
Clone C VNAR-hFc fusion (Fc fusion, not shown: a dimerising Fc or GST, bivalent VNAR-Fc; also called Clone C-hFc) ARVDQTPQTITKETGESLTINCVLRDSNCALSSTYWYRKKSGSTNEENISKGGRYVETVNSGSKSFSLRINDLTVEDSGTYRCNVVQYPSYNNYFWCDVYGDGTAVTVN	% double-positive cells vs WT	0
8D3 antibody (anti-mouse TfR-1 control; 8D3-hFc formatted antibody) (antibody, V domains shown) VH: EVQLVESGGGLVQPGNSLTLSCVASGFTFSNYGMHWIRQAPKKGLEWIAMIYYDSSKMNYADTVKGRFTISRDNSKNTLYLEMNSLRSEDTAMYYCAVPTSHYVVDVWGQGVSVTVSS VL: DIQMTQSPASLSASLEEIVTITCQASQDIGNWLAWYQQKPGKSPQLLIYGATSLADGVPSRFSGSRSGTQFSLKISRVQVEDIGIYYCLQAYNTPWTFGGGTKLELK	% double-positive cells vs WT	1
Clone C variant 18 VNAR-hFc (Fc fusion, not shown: a dimerising Fc or GST, also called Clone C v18; Clone C var; 18) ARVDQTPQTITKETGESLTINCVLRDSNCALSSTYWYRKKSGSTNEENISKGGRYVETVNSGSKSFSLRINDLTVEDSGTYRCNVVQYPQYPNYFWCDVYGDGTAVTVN	% double-positive cells vs WT	0

Kindly consider the entry below.
[in] Look up % double-positive cells vs WT of Clone C variant 13 VNAR-hFc (Fc fusion, not shown: a dimerising Fc or GST, also called Clone C v13; Clone C var; 13) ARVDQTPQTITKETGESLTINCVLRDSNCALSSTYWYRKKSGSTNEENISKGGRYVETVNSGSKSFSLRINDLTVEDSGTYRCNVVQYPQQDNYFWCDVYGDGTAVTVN and report it.
[out] 0
